# tested_on: T1, Human EphA2 (Ecto) (Human, UniProt P29317 24-537)
# T1 construct: extracellular domain; in-house)
# test_summary: FP competition; tracer Reference Compound C
Starred links: 1 amine or outer side, 2 acyl side, 3 side chain; linkers in the order of their positions; H or OH if unused. Positions of bridges follow the written chain, without caps; N, C: chain ends. Non-standard residues stand in square brackets, D forms with d. No end group written: not given here. TATA = O=C(CC[*:1])N1CN(C(=O)CC[*:2])CN(C(=O)CC[*:3])C1; βAla = NCCC(=O)O; Sar = CNCC(=O)O
assay_metric: pKi
Answers are plain numbers, as −log10 of the molar value.

Known pKi results, listed for orientation:
What measured pKi goes with ACPDWGKYCAYPDTICA (linker 2-9-16 via TATA) [Bicycle Compound Number 36 (TATA scaffold), ACPDWGKYCAYPDTICA] ? 6.80

Consider the binder ACGFMGLEPCELYCAHT (linker 2-10-14 via TATA (inferred)) [Bicycle Compound Number 49 (TATA scaffold), ACGFMGLEPCELYCAHT] and give its measured pKi. 6.84

Suppose we examine the binder XXXXXXXXXXXACPLVNPLCLHPGWTCLHG (X1 = β-Ala; X at 2-11 = Sar; H29 = D-His; 3 Cys thioether-linked to TATA scaffold) [Bicycle Compound Number 76 (TATA scaffold), (β-Ala)-Sar10-ACPLVNPLCLHPGWTCL(D-His)G] ; what pKi value has been reported? 8.00

Could you tell me which pKi is on file for SRPCVIDSRCAYMNVCA (linker 4-10-16 via TATA) [Bicycle Compound Number 19 (TATA scaffold), SRPCVIDSRCAYMNVCA] ? 7.02

Requested read-out: pKi. Entry: ETVCLPDSRCAYMNVCA (linker 4-10-16 via TATA) [Bicycle Compound Number 23 (TATA scaffold), ETVCLPDSRCAYMNVCA] 6.89

pKi lookup needed for ARDCPLVNPLCLHPGWTCA (linker 4-11-18 via TATA) [Bicycle Compound Number 65 (TATA scaffold), ARDCPLVNPLCLHPGWTCA] , thanks. 8.22

Which pKi is listed for ACPLVNPLCLEPGWTCAKR (linker 2-9-16 via TATA) [Bicycle Compound Number 85 (TATA scaffold), ACPLVNPLCLEPGWTCAKR] ? 7.96

Dear colleague, I am looking for the recorded pKi of the following binder: ACPLVNPLCLHPGWICA (linker 2-9-16 via TATA (inferred)) [Bicycle Compound Number 54 (TATA scaffold), ACPLVNPLCLHPGWICA] 7.82

Return reported pKi values for all items listed beneath this line.
1. ACPLVNPLCLTSGWKCA (linker 2-9-16 via TATA (inferred)) [Bicycle Compound Number 52 (TATA scaffold), ACPLVNPLCLTSGWKCA]
2. [βAla][Sar][Sar][Sar][Sar][Sar][Sar][Sar][Sar][Sar][Sar]ACVPDRRCAYMNVC (linker 13-19-25 via TATA) [Bicycle Compound Number 17 (TATA scaffold), (β-Ala)-Sar10-ACVPDRRCAYMNVC]
3. HSGCRPDPRCAYMNVCA (linker 4-10-16 via TATA) [Bicycle Compound Number 21 (TATA scaffold), HSGCRPDPRCAYMNVCA]

1. 6.94
2. 7.07
3. 7.21
